# experimental system: pooled human IgG (human IgG1, 2, 3 and 4)
assay endpoint: Enzyme Activity Endpoint Assay: IgG (ng/µL)
Use ng/µL as the unit, but write only the number.

Returns the measured Enzyme Activity Endpoint Assay: IgG for the input protein. Input: PRT-571 (protein) MANQEIRYSEETPSTITSVWTKGVTPPTQFIQNEDVLHAPYIANQGWYDITKTFNGKDDLLCGAATAGNMLHWWFDQNKEQIENYLKKHPEKQKINFNGEQMFDVKEAIDTKDSQTDSALFEYFKDKAFPYLSTKHLGVFPDHVIDMFINGYRLSLTNHGPTPVKRGTKDPRGGIFDAVFTRGDQSKLLTSRHDFKEKTLNEISDLIKQELTEGKALGLSHTYANVRINHVINLWGADFNAEGNLEAIYVTDSDSNASIGMKKYYVGVNAAGKVAISAKEIEGDNIGAQVLGLFTLSTGQDIWNQTNLEHHHHHH
0
